// provenance: ChEMBL document CHEMBL3867482

# Protocol: Clearance in monkey hepatocytes assessed per million cells by HPLC/atmospheric pressure chemical ionization/MS analysis
# Format: ADME, cell-based, Macaca mulatta, Hepatocyte
# Study conditions: rhesus monkey, read-out: CLH
Each entry gets false if its hepatocyte CLint stays under 40 µL/min/1e6 cells, and true if its hepatocyte CLint is 40 µL/min/1e6 cells or above.

stdin: Given the entry O=S(=O)(CC[C@@H]1OCC[C@@]2(S(=O)(=O)c3ccc(Cl)cc3)c3c(F)ccc(F)c3OC[C@@H]12)CC1=NCCN1 , answer whether its hepatocyte CLint meets or surpasses 40 µL/min/1e6 cells.
stdout: false

stdin: Same lookup for CN(C)CCS(=O)(=O)CC[C@@H]1OCC[C@@]2(S(=O)(=O)c3ccc(Cl)cc3)c3c(F)ccc(F)c3OC[C@@H]12 , please.
stdout: true

stdin: Same lookup for NCCS(=O)(=O)CC[C@@H]1OCC[C@@]2(S(=O)(=O)c3ccc(Cl)cc3)c3c(F)ccc(F)c3OC[C@@H]12 , please.
stdout: false

stdin: Same lookup for CNC(C)(C)CCS(=O)(=O)CC[C@@H]1OCC[C@@]2(S(=O)(=O)c3ccc(Cl)cc3)c3c(F)ccc(F)c3OC[C@@H]12 , please.
stdout: true

stdin: Same lookup for O=S(=O)(CC[C@@H]1OCC[C@@]2(S(=O)(=O)c3ccc(Cl)cc3)c3c(F)ccc(F)c3OC[C@@H]12)[C@@H]1CCNC1 , please.
stdout: false

stdin: Same lookup for O=S(=O)(CC[C@@H]1OCC[C@@]2(S(=O)(=O)c3ccc(Cl)cc3)c3c(F)ccc(F)c3OC[C@@H]12)CCN1CCNCC1 , please.
stdout: false
